Entry source: the supplement of paper PMC6555819

Record form. Attribute: PBM binding z-score. Fill in for each entry.
# Tested on: THRa homodimer (NR concentration 90 nM)
# EXPERIMENTAL_DETAILS: PBM binding z-score (relative to random genomic background probes); higher = stronger binding; sequences stand for … in GC…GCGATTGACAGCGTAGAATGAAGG
Keep the answer to the number alone.

The sequence listed as "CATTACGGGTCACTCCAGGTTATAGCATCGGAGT" shows PBM binding z-score equal to 0.963

The sequence listed as "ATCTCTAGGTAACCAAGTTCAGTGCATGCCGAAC" shows PBM binding z-score equal to 0.968

The sequence listed as "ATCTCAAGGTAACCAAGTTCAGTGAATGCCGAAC" shows PBM binding z-score equal to 1.06

The sequence listed as "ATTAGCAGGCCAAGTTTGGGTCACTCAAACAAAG" shows PBM binding z-score equal to 0.986

The sequence listed as "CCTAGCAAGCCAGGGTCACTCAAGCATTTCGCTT" shows PBM binding z-score equal to 1.1

The sequence listed as "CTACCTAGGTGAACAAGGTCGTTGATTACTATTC" shows PBM binding z-score equal to 1.54

The sequence listed as "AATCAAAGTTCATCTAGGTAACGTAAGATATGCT" shows PBM binding z-score equal to 0.0393

The sequence listed as "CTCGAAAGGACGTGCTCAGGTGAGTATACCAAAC" shows PBM binding z-score equal to 0.542

The sequence listed as "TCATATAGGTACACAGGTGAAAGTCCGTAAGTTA" shows PBM binding z-score equal to 0.627

The sequence listed as "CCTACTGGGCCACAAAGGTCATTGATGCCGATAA" shows PBM binding z-score equal to 0.818

The sequence listed as "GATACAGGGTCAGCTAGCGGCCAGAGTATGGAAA" shows PBM binding z-score equal to -0.0331

The sequence listed as "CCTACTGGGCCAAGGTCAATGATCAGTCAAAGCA" shows PBM binding z-score equal to 1.77

The sequence listed as "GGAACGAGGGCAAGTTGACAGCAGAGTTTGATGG" shows PBM binding z-score equal to -0.0541

The sequence listed as "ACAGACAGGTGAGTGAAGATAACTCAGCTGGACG" shows PBM binding z-score equal to -0.684

The sequence listed as "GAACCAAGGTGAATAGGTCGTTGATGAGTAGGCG" shows PBM binding z-score equal to 0.124

The sequence listed as "TCTTGTAGACCAAAGGTTAAGAAAGCCGAAGCCT" shows PBM binding z-score equal to -0.878

The sequence listed as "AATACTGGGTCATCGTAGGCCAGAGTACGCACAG" shows PBM binding z-score equal to 0.749

The sequence listed as "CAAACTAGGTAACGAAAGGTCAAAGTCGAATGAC" shows PBM binding z-score equal to 1.16

The sequence listed as "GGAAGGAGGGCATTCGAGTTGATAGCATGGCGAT" shows PBM binding z-score equal to 0.445

The sequence listed as "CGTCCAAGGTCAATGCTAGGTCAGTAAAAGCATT" shows PBM binding z-score equal to 2.63

The sequence listed as "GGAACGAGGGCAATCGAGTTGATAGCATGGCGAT" shows PBM binding z-score equal to -0.649

The sequence listed as "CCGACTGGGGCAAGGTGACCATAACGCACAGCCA" shows PBM binding z-score equal to 0.18

The sequence listed as "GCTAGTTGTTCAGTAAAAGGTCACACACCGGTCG" shows PBM binding z-score equal to 1.77

The sequence listed as "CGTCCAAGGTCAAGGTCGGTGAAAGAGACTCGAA" shows PBM binding z-score equal to 2.88

The sequence listed as "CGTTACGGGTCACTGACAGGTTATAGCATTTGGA" shows PBM binding z-score equal to 0.0977

The sequence listed as "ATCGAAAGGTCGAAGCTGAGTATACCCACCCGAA" shows PBM binding z-score equal to 0.00439

The sequence listed as "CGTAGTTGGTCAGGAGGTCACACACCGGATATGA" shows PBM binding z-score equal to 2.18

The sequence listed as "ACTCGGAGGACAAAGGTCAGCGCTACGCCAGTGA" shows PBM binding z-score equal to 0.928

The sequence listed as "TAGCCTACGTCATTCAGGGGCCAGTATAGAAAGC" shows PBM binding z-score equal to -0.39

The sequence listed as "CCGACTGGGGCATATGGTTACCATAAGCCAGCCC" shows PBM binding z-score equal to -0.688

The sequence listed as "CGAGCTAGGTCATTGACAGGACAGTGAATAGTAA" shows PBM binding z-score equal to 0.527

The sequence listed as "CGAACTAGGTCATCCAGGACAGTGCATACATTGA" shows PBM binding z-score equal to 2.06

The sequence listed as "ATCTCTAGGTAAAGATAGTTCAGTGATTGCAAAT" shows PBM binding z-score equal to 0.445

The sequence listed as "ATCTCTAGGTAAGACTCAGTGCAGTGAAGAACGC" shows PBM binding z-score equal to 0.26

The sequence listed as "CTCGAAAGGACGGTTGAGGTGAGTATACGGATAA" shows PBM binding z-score equal to 0.887

The sequence listed as "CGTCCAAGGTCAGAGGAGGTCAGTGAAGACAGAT" shows PBM binding z-score equal to 2.8

The sequence listed as "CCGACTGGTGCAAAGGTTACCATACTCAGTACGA" shows PBM binding z-score equal to 0.0703

The sequence listed as "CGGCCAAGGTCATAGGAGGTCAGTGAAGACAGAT" shows PBM binding z-score equal to 2.88

The sequence listed as "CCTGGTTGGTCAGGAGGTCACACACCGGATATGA" shows PBM binding z-score equal to 2.1

The sequence listed as "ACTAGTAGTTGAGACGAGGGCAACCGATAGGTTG" shows PBM binding z-score equal to -0.0205

The sequence listed as "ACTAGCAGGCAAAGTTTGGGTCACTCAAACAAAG" shows PBM binding z-score equal to 0.949

The sequence listed as "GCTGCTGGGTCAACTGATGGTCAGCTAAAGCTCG" shows PBM binding z-score equal to 0.228

The sequence listed as "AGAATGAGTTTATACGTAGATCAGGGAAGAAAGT" shows PBM binding z-score equal to -0.368

The sequence listed as "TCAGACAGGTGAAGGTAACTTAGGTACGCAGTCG" shows PBM binding z-score equal to 0.691

The sequence listed as "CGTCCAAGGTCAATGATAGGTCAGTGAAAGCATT" shows PBM binding z-score equal to 2.44

The sequence listed as "ACAGACAGGTGTGTGAAGGTAACTCAGCTGGACG" shows PBM binding z-score equal to -0.902

The sequence listed as "CCTACTGGGCCAAGGTCATGGATCAGTCAAAGCA" shows PBM binding z-score equal to 2.5

The sequence listed as "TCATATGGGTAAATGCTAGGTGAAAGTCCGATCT" shows PBM binding z-score equal to 0.395

The sequence listed as "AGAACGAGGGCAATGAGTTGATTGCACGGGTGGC" shows PBM binding z-score equal to -0.344

The sequence listed as "TAGCCTAGGTCATTGGGCCAGGATAGTACGCATC" shows PBM binding z-score equal to 0.55

The sequence listed as "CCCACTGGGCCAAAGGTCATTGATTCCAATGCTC" shows PBM binding z-score equal to 0.821
